Provide the recorded composite z-score for the entries that follow.
Tested on: Neuregulin-1 EGF-like domain
Experiment: small molecules binding NRG1 EGF domain – biochemical, small-molecule microarray, 635 nm fluorescence, primary screen (AID 1081);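 also: binding of the protein to compounds printed on small-molecule microarray slides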
Details: higher = more signal

So what's the measured composite z-score for this one? COc1cccc(C)c1NC(=O)O[C@H]1[C@H](OC(=O)Nc2ccccc2)[C@H](OC(=O)Nc2ccccc2)[C@@H](OC)O[C@@H]1CO
1.22

So what's the measured composite z-score for this one? [N-]=[N+]=Nc1ccccc1[C@H]1OC(c2ccc(OCCCO)cc2)=N[C@@]1(Cc1ccccc1)C(=O)NCc1ccccc1
0.567

So what's the measured composite z-score for this one? COc1ccc(C#Cc2ccc3c(c2)[C@]2(C(=O)N3)[C@H](C(=O)O)[C@H]3C(=O)O[C@H](c4ccccc4)[C@H](c4ccccc4)N3[C@@H]2c2ccc(OCCO)cc2)cc1
0.976

So what's the measured composite z-score for this one? C=C(/C(=C/C[C@@H](OC(=O)c1ccncc1)c1ccccc1OCCO)c1cnc2ccccc2c1)C(C)C
1.2

So what's the measured composite z-score for this one? C[N+](C)(C)CCCC[C@@H]1NC(=O)[C@@H]2C[C@H](C(=O)O)[C@H](c3cccc(OCCO)c3)N2C1=O
1.1

So what's the measured composite z-score for this one? O=C(N1CCOCC1)[C@@]1(CCS(=O)(=O)c2ccccc2)COC(c2ccc(OCCCO)cc2)=N1
0.942

So what's the measured composite z-score for this one? CC(C)C[C@@H]1NC(=O)[C@@H]2C[C@H](C(=O)NCc3ccc(F)cc3)[C@H](c3ccc(O)cc3)N2C1=O
1.16

So what's the measured composite z-score for this one? COC(=O)C(CC#Cc1ccc2c(c1)[C@]1(C(=O)N2)[C@H](c2ccc(O)cc2)N2[C@H](c3ccccc3)[C@H](c3ccccc3)OC(=O)[C@H]2[C@@H]1C(=O)O)C(=O)OC
0.798

So what's the measured composite z-score for this one? CC1=C2[C@@H](CCc3ccccc3)OB(O)C[C@@H]2[C@@H]2C(=O)C=CC(=O)[C@@H]2C1
0.976

So what's the measured composite z-score for this one? COC(=O)[C@@]1(Cc2ccccc2)[C@H]2c3cc(C(=O)N4CCCC4)n(Cc4ccc(OC(F)(F)F)cc4)c3C[C@H]2CN1C(=O)c1ccccc1
1.18

So what's the measured composite z-score for this one? CCCCCCCCCCC(O)C1C=CC2C(=O)NC(=O)C2N1Nc1ccccn1 (centres undefined)
0.852

So what's the measured composite z-score for this one? CCCCC(=C=CC[C@H](O)c1cccc(OCCO)c1)C[C@H](O)COCc1ccccc1
0.794

So what's the measured composite z-score for this one? Cc1ccc(S[C@]2(C(=O)NCCN3CCOCC3)CC(=O)N(C3Cc4ccccc4C3)[C@@H]2c2ccc(CO)cc2)cc1
1.27

So what's the measured composite z-score for this one? COC(=O)[C@@]1(Cc2ccc(OC)cc2)[C@H]2c3cc(C(=O)N4CCCC4)n(Cc4ccc(C)o4)c3C[C@H]2CN1C(=O)c1ccccc1
0.266
